All values here come from patent US10004792B2.

- System: HLA-A*24
- MEASUREMENT NOTES: MHC binding assay (UV-ligand exchange, beta2m ELISA), HLA-A*24
- Parameters: species or system human
- MEASUREMENT CONTEXT: peptide exchange yield, binding to HLA-A*24, UV-ligand exchange, β2m ELISA
METRIC: Peptide exchange

1) 210 (IYTMIYRNL; listed as Homo sapiens) [compound 210] = ++++ (>=75% = ++++)
2) 187 (TYLRDQHFL; listed as Homo sapiens) [compound 187] = ++++ (>=75% = ++++)
3) 166 (YYVESGKLF; listed as Homo sapiens) [compound 166] = ++++ (>=75% = ++++)
4) 278 (RYISDQLFTNF; listed as Homo sapiens) [compound 278] = ++++ (>=75% = ++++)
